Kindly state growth inhibition for each of the entries shown.
Experiment: NCI Yeast Anticancer Drug Screen. Data for the CLN2oe strain (AID 163);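 further: 0% = growth of vehicle-only control cultures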
Conditions: S. cerevisiae CLN2oe strain, at 1.2 µM, active compounds read high
This is part of a sample that, as a whole, favours compounds with a hit. Of some 79,000 tested, about 15% had one in any assay.
# output: bare number, implied unit %

get_value(item= `Cc1cc(Cl)nc2nc(Cl)c(N)cc12` , readout=growth inhibition) returns 4

get_value(item= O=C1C(Cl)=C(Cl)C(Cl)(Cl)C(Cl)C1(Cl)Cl (configuration not stated) , readout=growth inhibition) returns 15

get_value(item= `Cc1c(-c2ccccc2)[nH]c2ccccc12` , readout=growth inhibition) returns 5

get_value(item= `N#C/C(=C/c1c(Cl)cccc1Cl)C(N)=O` , readout=growth inhibition) returns 9

get_value(item= `S=c1cn[nH]c2ccc(Br)cc12` , readout=growth inhibition) returns -4

get_value(item= `[Pt].c1ccc(P(CCP(c2ccccc2)c2ccccc2)CCP(c2ccccc2)c2ccccc2)cc1` , readout=growth inhibition) returns -18

get_value(item= `S=c1nc(Cl)cc2[nH]c(Cl)cn12` , readout=growth inhibition) returns 1

====

Assay: NCI Yeast Anticancer Drug Screen. Data for the mec2-1 strain (AID 157)
Conditions: S. cerevisiae mec2-1 strain, at 11.0 µM
Experimental: Growth inhibition of yeast strains with defined genetic alterations is measured as a screen for potential anti-cancer activity. Selected strains with alterations in DNA damage repair or cell cycle control were exposed to compounds and growth inhibition was measured relative to vehicle treated controls. The strain used in this assay is mec2-1
The panel holds about 79,000 compounds, 15% with a hit somewhere; the sample as a whole holds those more often. Activity calls are given as the source filed them. Rule as the data show it: active = growth inhibition above about 70%; inactive = the rest.
Write down one outcome, taken from active, inactive

Hello, I am checking results. What call was entered for `NC(N)=N/N=C/c1cc(Cl)cc(Cl)c1O` ?
inactive

Hello, I am checking results. What call was entered for `CCCCC(=O)c1c(O)nc2sccn2c1=O` ?
active

Hello, I am checking results. What call was entered for CCCCC(CC)C(=O)Oc1ccc(C(=O)c2ccccc2)c(O)c1 (configuration not stated) ?
inactive

Hello, I am checking results. What call was entered for `O=[N+]([O-])c1cccc2nc3ccccc3c(NCCc3cccc[n+]3[O-])c12` ?
inactive

Hello, I am checking results. What call was entered for `O=NN(CCCl)C(=O)NCCCl` ?
inactive

Hello, I am checking results. What call was entered for `COC(=O)c1cccc(C)c1C(=O)c1c(C)cc(C)cc1C` ?
inactive

Hello, I am checking results. What call was entered for `Cc1cc(C(C)(C)CC(C)(C)C)cc(O)c1O` ?
active

Hello, I am checking results. What call was entered for `Nc1ccc2c(c1)sc1ccccc12` ?
inactive

Hello, I am checking results. What call was entered for `CC(C)(C)c1ccc(O)c(C(c2ccc([N+](=O)[O-])cc2)c2cc(C(C)(C)C)ccc2O)c1` ?
inactive

Hello, I am checking results. What call was entered for `N#C/C(=C\c1ccccc1)c1ccccc1F` ?
inactive

Hello, I am checking results. What call was entered for `CN(C)CCN1C(=O)c2cccc3cc([N+](=O)[O-])cc(c23)C1=O` ?
inactive

Hello, I am checking results. What call was entered for `Cc1ccc(I)cc1N=C=S` ?
inactive

====

Assay: NCI Yeast Anticancer Drug Screen. Data for the mlh1 strain (AID 171);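 further: 0% = growth of vehicle-treated control cultures of the same strain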
Conditions: S. cerevisiae mlh1 strain growth inhibition; at 1.2 µM; active compounds read high
Compounds without any hit were thinned out: in the full panel of roughly 79,000, 15% have a hit.
Kindly state growth inhibition for each of the entries shown.
# output: bare number, implied unit %

get_value(item= `COc1ccc(N=N/C(=N\NC(=O)c2cc(Br)ccc2O)c2ccc(N(CCC#N)CCC#N)cc2OC)cc1` , readout=growth inhibition) returns 33

get_value(item= `CCCCC1=NNC(=O)C1` , readout=growth inhibition) returns -11

get_value(item= `Clc1c(Cl)c(Cl)c2n[nH]nc2c1Cl` , readout=growth inhibition) returns -59

get_value(item= `COc1ccc(N=Nc2ccc3oc(=O)c(C(=O)Nc4ccccc4)cc3c2)cc1` , readout=growth inhibition) returns 25

get_value(item= `CC(=O)Oc1ccc(C(=O)c2ccccc2)c(O)c1` , readout=growth inhibition) returns -2

get_value(item= `Cc1cc(Cl)nc2nc(Cl)c(N)cc12` , readout=growth inhibition) returns -16

get_value(item= `O=C(Nc1cccc(C(F)(F)F)c1)Oc1ccc(Cl)cc1C(=O)c1ccccc1` , readout=growth inhibition) returns 9

get_value(item= `Nc1cc(S(N)(=O)=O)ccc1SSc1ccc(S(N)(=O)=O)cc1N` , readout=growth inhibition) returns 4

get_value(item= `CCN(CC)CCNC(=O)c1nn(-c2ccc(Cl)cc2)c2c1CCc1cc(OC)ccc1-2` , readout=growth inhibition) returns 13

get_value(item= Nc1nc(F)nc2c1ncn2C1OC(COP(=O)(O)O)C(O)C1O (stereo unspecified) , readout=growth inhibition) returns 0

get_value(item= `O=S(=O)(N/N=C/c1cccc(Cl)c1)c1ccccc1` , readout=growth inhibition) returns -3
